B1: SERPINB5 (parent)
chain: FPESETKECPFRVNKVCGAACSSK

Variants of: B1
Experiment: protein stability index of a GFP-peptide fusion (GPS, HEK-293T) (PSI 1-6); higher = more stable;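 further: lentivirally expressed fusions sorted by FACS into six bins by GFP to DsRed ratio, PSI derived from sequencing read proportions per bin multiplied by bin number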
Conditions: c terminus: a fixed tail appended
Rule: protein stability index under 3 gives Criterion not met, otherwise Criterion met.

>>> answer_label("FPESETKECPFRVNKLCGAACSSK [V16L]")
"Criterion not met"
>>> answer_label("FPSSETKECPFRVNKVCGAACSSK [E3S]")
"Criterion not met"
>>> answer_label("FPESETKECPFRVNKTCGAACSSK [V16T]")
"Criterion not met"
>>> answer_label("FPESETKLCPFRVNKVCGAACSSK [E8L]")
"Criterion not met"
>>> answer_label("FPESETKECPFRVNKVCGAAISSK [C21I]")
"Criterion not met"
>>> answer_label("FPESETKECPFRVNKVCGAAQSSK [C21Q]")
"Criterion not met"
>>> answer_label("FPESGTKECPFRVNKVCGAACSSK [E5G]")
"Criterion not met"
>>> answer_label("FPESETKECEFRVNKVCGAACSSK [P10E]")
"Criterion met"
>>> answer_label("FPEFETKECPFRVNKVCGAACSSK [S4F]")
"Criterion not met"
>>> answer_label("FPPSETKECPFRVNKVCGAACSSK [E3P]")
"Criterion not met"
>>> answer_label("FPESETKEDPFRVNKVCGAACSSK [C9D]")
"Criterion met"
>>> answer_label("FPESETKECPFRVNKVCGASCSSK [A20S]")
"Criterion not met"
>>> answer_label("FPESENKECPFRVNKVCGAACSSK [T6N]")
"Criterion not met"
>>> answer_label("FPESETKECPFRVYKVCGAACSSK [N14Y]")
"Criterion not met"
>>> answer_label("FPESETKECPFSVNKVCGAACSSK [R12S]")
"Criterion met"
>>> answer_label("FPESETKECPGRVNKVCGAACSSK [F11G]")
"Criterion not met"
>>> answer_label("FPESETKDCPFRVNKVCGAACSSK [E8D]")
"Criterion not met"
>>> answer_label("FPESETKECPFRVNKVCGAACKSK [S22K]")
"Criterion not met"
>>> answer_label("FPESETKECKFRVNKVCGAACSSK [P10K]")
"Criterion met"
>>> answer_label("FPESEVKECPFRVNKVCGAACSSK [T6V]")
"Criterion met"
>>> answer_label("FPESETKECPFRVNKFCGAACSSK [V16F]")
"Criterion not met"
>>> answer_label("FPESETKECPFRVNKVCGAACVSK [S22V]")
"Criterion not met"
>>> answer_label("FPESETKECPFRVNKVCGAGCSSK [A20G]")
"Criterion met"
>>> answer_label("FPENETKECPFRVNKVCGAACSSK [S4N]")
"Criterion met"
>>> answer_label("FPESSTKECPFRVNKVCGAACSSK [E5S]")
"Criterion not met"
>>> answer_label("FWESETKECPFRVNKVCGAACSSK [P2W]")
"Criterion met"
>>> answer_label("FPESLTKECPFRVNKVCGAACSSK [E5L]")
"Criterion not met"
>>> answer_label("FPESETKECPFRNNKVCGAACSSK [V13N]")
"Criterion met"
>>> answer_label("FPESEMKECPFRVNKVCGAACSSK [T6M]")
"Criterion not met"
>>> answer_label("FPESETKECPFRVNQVCGAACSSK [K15Q]")
"Criterion not met"
>>> answer_label("FPESETKECPFRDNKVCGAACSSK [V13D]")
"Criterion met"
>>> answer_label("FPESETKECPFRVNKECGAACSSK [V16E]")
"Criterion met"
>>> answer_label("FPESETKECPFRVNKVCGAACISK [S22I]")
"Criterion not met"
>>> answer_label("FPESEGKECPFRVNKVCGAACSSK [T6G]")
"Criterion not met"
>>> answer_label("GPESETKECPFRVNKVCGAACSSK [F1G]")
"Criterion met"
>>> answer_label("FPESETKECPFRVNLVCGAACSSK [K15L]")
"Criterion not met"
>>> answer_label("FPESETKECPFRVNKVCWAACSSK [G18W]")
"Criterion met"
>>> answer_label("FPESETKECPFPVNKVCGAACSSK [R12P]")
"Criterion met"
>>> answer_label("FPESERKECPFRVNKVCGAACSSK [T6R]")
"Criterion not met"
>>> answer_label("FPESETKECPFRVNKVCGWACSSK [A19W]")
"Criterion not met"
>>> answer_label("FPESNTKECPFRVNKVCGAACSSK [E5N]")
"Criterion not met"
>>> answer_label("FPESETKECPFRVKKVCGAACSSK [N14K]")
"Criterion not met"
>>> answer_label("FPEYETKECPFRVNKVCGAACSSK [S4Y]")
"Criterion not met"
>>> answer_label("WPESETKECPFRVNKVCGAACSSK [F1W]")
"Criterion met"
>>> answer_label("FGESETKECPFRVNKVCGAACSSK [P2G]")
"Criterion met"
>>> answer_label("FPESETKECPFRVNSVCGAACSSK [K15S]")
"Criterion not met"
>>> answer_label("FPESETKECPFRVNKVCGAACSSM [K24M]")
"Criterion not met"
>>> answer_label("FPESETKECPFTVNKVCGAACSSK [R12T]")
"Criterion met"
>>> answer_label("FPESETKECPFRVNKKCGAACSSK [V16K]")
"Criterion not met"
>>> answer_label("FPESETKSCPFRVNKVCGAACSSK [E8S]")
"Criterion not met"
>>> answer_label("FPESETGECPFRVNKVCGAACSSK [K7G]")
"Criterion not met"
>>> answer_label("FPESETKECPFRVCKVCGAACSSK [N14C]")
"Criterion not met"
>>> answer_label("FPESETKHCPFRVNKVCGAACSSK [E8H]")
"Criterion not met"
>>> answer_label("FPESEDKECPFRVNKVCGAACSSK [T6D]")
"Criterion not met"
>>> answer_label("FPESETKECMFRVNKVCGAACSSK [P10M]")
"Criterion met"
>>> answer_label("YPESETKECPFRVNKVCGAACSSK [F1Y]")
"Criterion met"
>>> answer_label("FPESETKECPFRVNKVCGAACSSS [K24S]")
"Criterion not met"
>>> answer_label("FPESETKECPFRVNKWCGAACSSK [V16W]")
"Criterion not met"
>>> answer_label("FPESETKECPFRVNKQCGAACSSK [V16Q]")
"Criterion not met"
>>> answer_label("FPESETKEFPFRVNKVCGAACSSK [C9F]")
"Criterion not met"
>>> answer_label("FPESETKECPFRVNKVCGACCSSK [A20C]")
"Criterion not met"
>>> answer_label("FPESATKECPFRVNKVCGAACSSK [E5A]")
"Criterion not met"
>>> answer_label("FPESETKECPFRVNKVCKAACSSK [G18K]")
"Criterion met"
>>> answer_label("FPESETKEGPFRVNKVCGAACSSK [C9G]")
"Criterion not met"
>>> answer_label("FPESETKECPFRVNKVCGAACSSC [K24C]")
"Criterion met"
>>> answer_label("FPEKETKECPFRVNKVCGAACSSK [S4K]")
"Criterion met"
>>> answer_label("FPESETKECPFRVNKVCGAALSSK [C21L]")
"Criterion not met"
>>> answer_label("FPESETKECQFRVNKVCGAACSSK [P10Q]")
"Criterion met"
>>> answer_label("FPESETKECPFYVNKVCGAACSSK [R12Y]")
"Criterion met"
>>> answer_label("FPESETKECPFRVNKRCGAACSSK [V16R]")
"Criterion not met"
>>> answer_label("FPESETKECPCRVNKVCGAACSSK [F11C]")
"Criterion met"
>>> answer_label("FPESETKECPPRVNKVCGAACSSK [F11P]")
"Criterion met"
>>> answer_label("FPESETRECPFRVNKVCGAACSSK [K7R]")
"Criterion not met"
>>> answer_label("FPESETKECPFRVNPVCGAACSSK [K15P]")
"Criterion not met"
>>> answer_label("FPESETKEMPFRVNKVCGAACSSK [C9M]")
"Criterion met"
>>> answer_label("FPESETKECPFRVNKVCGAACSSA [K24A]")
"Criterion not met"
>>> answer_label("FPESETKECPFRINKVCGAACSSK [V13I]")
"Criterion not met"
